test: Solubility assay in media with different pHs; type: physicochemical; conditions: water, 37 °C, thermodynamic from solid

Molecular String	solubility at 24 h [µg/mL]
COc1cc2ncnc(Nc3cccc(Cl)c3F)c2cc1N1CC2(CN(C)C2)OC1=O.Cc1ccc(S(=O)(=O)O)cc1	1140

----------
test: Solubility assay in media with different pHs; type: physicochemical; details: pH 7.4 buffer solution, 37 °C, pH 7.4, aqueous buffer, thermodynamic from solid

Molecular String	solubility at 2 h (µg/mL)
COc1cc2ncnc(Nc3cccc(Cl)c3F)c2cc1N1CC2(CN(C)C2)OC1=O.Cc1ccc(S(=O)(=O)O)cc1	99

----------
test: Solubility assay in media with different pHs; assay type: physicochemical; conditions: pH 5.5 buffer solution, 37 °C, pH 5.5, aqueous buffer, thermodynamic from solid
Measured Attribute: solubility at 24 h

Molecular String	Measured Attribute	Result
COc1cc2ncnc(Nc3cccc(Cl)c3F)c2cc1N1CC2(CN(C)C2)OC1=O.Cc1ccc(S(=O)(=O)O)cc1	solubility at 24 h	1300 µg/mL

----------
assay: Solubility assay in media with different pHs; format: physicochemical; conditions: 0.01 mol/L HCl, 37 °C, pH 2, simulated gastric fluid, thermodynamic from solid
Measured Attribute: solubility at 2 h

Molecular String	Result
COc1cc2ncnc(Nc3cccc(Cl)c3F)c2cc1N1CC2(CN(C)C2)OC1=O.Cc1ccc(S(=O)(=O)O)cc1	7.44 mg/mL

----------
assay: Solubility assay in media with different pHs; format: physicochemical; conditions: pH 6.8 buffer solution, 37 °C, pH 6.8, aqueous buffer, thermodynamic from solid
Measured Attribute: solubility at 24 h

Molecular String	Result
COc1cc2ncnc(Nc3cccc(Cl)c3F)c2cc1N1CC2(CN(C)C2)OC1=O.Cc1ccc(S(=O)(=O)O)cc1	73 µg/mL

----------
experiment: Solubility assay in media with different pHs; type: physicochemical; conditions: 0.1 mol/L HCl, 37 °C, pH 1, simulated gastric fluid, thermodynamic from solid
Measured Attribute: solubility at 24 h

Molecular String	Result
COc1cc2ncnc(Nc3cccc(Cl)c3F)c2cc1N1CC2(CN(C)C2)OC1=O.Cc1ccc(S(=O)(=O)O)cc1	> 10000 µg/mL

Source: patent US20220194959A1
